Data credit: patent US20260167714A1

Each record here notes measured pKd.
# study system: T1, recombinant human ILT4 (LILRB2) (human, UniProt Q8N423 22-460)
# T1 construct: Bought protein (Acro Biosystems or R&D Systems); also called ILTR4
# T1 sequence (Q8N423 other isoform, or with tags, fused parts or gaps limits assumed): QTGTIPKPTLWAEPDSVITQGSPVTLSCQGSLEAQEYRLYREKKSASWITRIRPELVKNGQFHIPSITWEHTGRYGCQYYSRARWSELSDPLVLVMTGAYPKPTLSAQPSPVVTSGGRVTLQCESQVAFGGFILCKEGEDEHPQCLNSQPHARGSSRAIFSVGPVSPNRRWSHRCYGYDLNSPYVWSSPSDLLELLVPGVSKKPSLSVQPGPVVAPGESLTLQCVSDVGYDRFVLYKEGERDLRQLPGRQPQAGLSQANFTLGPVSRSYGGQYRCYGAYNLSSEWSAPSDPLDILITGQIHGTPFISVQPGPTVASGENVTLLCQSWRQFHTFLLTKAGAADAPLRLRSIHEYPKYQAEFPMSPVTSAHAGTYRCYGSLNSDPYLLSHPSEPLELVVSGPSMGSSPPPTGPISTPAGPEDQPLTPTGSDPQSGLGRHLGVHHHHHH
# experimental details: SPR, Biacore T200, medium resolution; koff held at its limit of 4.27e-5 s^-1
pKd: −log10 of the molar value.

Chimeric 180 (antibody, V domains shown, Chimeric form of L180S4) VH: EVHLQQSGPELVKPGASVKISCKASGYSFIGYFMNWMKQSHGKSLEWIGRINPYNGDIFYNQKFKGKATLTVDKSSTTAHMDLLSLTSEDFAVYYCARGITVAAGSFDVWGTGTTVTVSS VL: DIVLTQSPASLAVSLGQRATISCRASESVDNYGNTFMHWYQQKPGQPPKLLIYRASNLESGIPARFSGSGSKTDFTLTINPVEADDVATYYCQQSSDHPLTFGAGTKLELS	≥ 10.31

Prompt: Input Hz156.03-LALA (antibody, human IgG1, kappa, L234A L235A, V domains shown, Humanized L156S3, human IgG1 L234A/L235A, kappa) VH: QVQLVQSGAEVKKPGSSVKVSCKASGYTFTDYYMNWVRQAPGQGLEWIARIYPGVYRTHYNEKFKDRVTLTADKSTSTAYMELSSLRSEDTAVYYCARSGYYGGTYEEDAMDYWGQGTTVTVSS VL: DIQMTQSPSSLSASVGDRVTITCRASENIYSNLAWYQQKPGKAPKLLVYAATSLADGVPSRFSGSGSGTDYTLTISSLQPEDFATYYCQNFWDTPYTFGQGTKVEIKR , output reported pKd.
Response: ≥ 10.07

Prompt: Input L180S4 (antibody, IgG1, V domains shown, also called Murine 180; mouse anti-human ILT4 antibody L180S4) VH: EVHLQQSGPELVKPGASVKISCKASGYSFIGYFMNWMKQSHGKSLEWIGRINPYNGDIFYNQKFKGKATLTVDKSSTTAHMDLLSLTSEDFAVYYCARGITVAAGSFDVWGTGTTVTVSS VL: DIVLTQSPASLAVSLGQRATISCRASESVDNYGNTFMHWYQQKPGQPPKLLIYRASNLESGIPARFSGSGSKTDFTLTINPVEADDVATYYCQQSSDHPLTFGAGTKLELS , output reported pKd.
Response: ≥ 10.00
